Biological target: Beta-secretase 1 (Homo sapiens, UniProt P56817)
Sequence (P56817 whole entry): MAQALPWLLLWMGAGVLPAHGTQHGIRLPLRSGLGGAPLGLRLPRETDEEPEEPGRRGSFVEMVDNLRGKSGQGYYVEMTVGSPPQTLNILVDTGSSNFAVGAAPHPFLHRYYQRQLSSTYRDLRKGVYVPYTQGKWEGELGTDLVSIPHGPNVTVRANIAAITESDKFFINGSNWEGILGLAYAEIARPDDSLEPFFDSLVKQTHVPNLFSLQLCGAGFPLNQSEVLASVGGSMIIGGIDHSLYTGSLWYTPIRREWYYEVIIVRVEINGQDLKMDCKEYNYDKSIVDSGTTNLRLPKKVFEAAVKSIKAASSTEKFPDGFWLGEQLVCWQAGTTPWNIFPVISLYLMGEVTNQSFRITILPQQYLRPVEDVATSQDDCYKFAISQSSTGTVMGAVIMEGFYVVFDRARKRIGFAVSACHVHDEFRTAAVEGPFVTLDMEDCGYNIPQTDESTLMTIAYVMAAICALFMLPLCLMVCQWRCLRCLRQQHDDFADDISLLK
Experiment: Inhibition of BACE1 in human HEK293 cells overexpressing APP with Swedish mutation assessed as inhibition of amyloid beta 40 production
Type: cell-based
Conditions: read-out: IC50
Assignment: determine reported IC50 for the given compounds.
# number only, unit nM dropped from output

What IC50 value was documented for this compound, CCCN(CCC)C(=O)c1cc(C(=O)N[C@@H](Cc2cc(F)cc(F)c2)[C@H](O)CNCc2cccc(OC)c2)cc(/C(C)=N\OCC(C)C)c1 ?
367

Repeat with CO/N=C(/C)c1cc(C(=O)N[C@@H](Cc2cc(F)cc(F)c2)[C@H](O)CNCc2cccc(OC)c2)cc(C(=O)N[C@H](C)c2ccccc2)c1
82

Please give the result for COc1cccc(CNC[C@@H](O)[C@H](Cc2cc(F)cc(F)c2)NC(=O)c2cc(C(C)O)cc(N(C)S(C)(=O)=O)c2)c1 (stereo partly specified) too.
122

Input C=CCO/N=C(/C)c1cc(C(=O)N[C@@H](Cc2cc(F)cc(F)c2)[C@H](O)CNCc2cccc(OC)c2)cc(C(=O)N[C@H](C)c2ccccc2)c1
500

Would you kindly repeat that for CCCN(CCC)C(=O)c1cc(C(=O)N[C@@H](Cc2cc(F)cc(F)c2)[C@H](O)CNCc2cccc(OC)c2)cc(C(C)NC(C)=O)c1 (stereo partly specified) ?
45

* * *

Biological target: Beta-secretase 1 (Homo sapiens, UniProt P56817)
Experiment: Inhibition of BACE1 in human HEK293 cells overexpressing APP with Swedish mutation assessed as inhibition of amyloid beta 40 production
Assay type: cell-based
Conditions: read-out: IC50
pIC50: −log10 of the molar value.
Criterion: pIC50 meeting or surpassing 7. Met: satisfied. Not met: not satisfied.

Assess whether reported pIC50 for COc1cccc(CNC[C@@H](O)[C@H](Cc2cc(F)cc(F)c2)NC(=O)c2cccc(N3CCCCS3(=O)=O)c2)c1 sits at 7 or higher.
not satisfied

Now the compound CCCN(CCC)C(=O)c1cc(C(=O)N[C@@H](Cc2cc(F)cc(F)c2)[C@H](O)CNCc2cccc(OC)c2)cc(C(C)N)c1 (some centres not stated)
not satisfied

// next record COc1cccc(CNC[C@@H](O)[C@H](Cc2cc(F)cc(F)c2)NC(=O)c2cc(C(C)=O)cc(N3CCCCS3(=O)=O)c2)c1
not satisfied

Proceed to CO/N=C(\C)c1cc(C(=O)N[C@@H](Cc2cc(F)cc(F)c2)[C@H](O)CNCc2cccc(OC)c2)cc(N(C)S(C)(=O)=O)c1
satisfied

Next: COc1cccc(CNC[C@@H](O)[C@H](Cc2cc(F)cc(F)c2)NC(=O)c2cc(/C(C)=N\OCC(C)C)cc(N(C)S(C)(=O)=O)c2)c1
not satisfied

* * *

So I've got a bunch of compounds here, and I need their pIC50 values.
Target: Beta-secretase 1 (Homo sapiens, UniProt P56817)
Test: Inhibition of BACE1 in human HEK293 cells overexpressing APP with Swedish mutation assessed as inhibition of amyloid beta 40 production
Format: cell-based
Conditions: read-out: IC50
// returns pIC50 (minus log10 of molar concentration), number only

Fill blank: measured pIC50 of the compound CCCO/N=C(/C)c1cc(C(=O)N[C@@H](Cc2cc(F)cc(F)c2)[C@H](O)CNCc2cccc(OC)c2)cc(N2CCCCS2(=O)=O)c1 is ____.
6.69

# iterate: CCCN(CCC)C(=O)c1cc(Oc2ccc(OC)cc2)cc(C(=O)N[C@@H](Cc2cc(F)cc(F)c2)[C@H](O)CNCc2cccc(OC)c2)c1
6.39

What about this compound? CCCN(CCC)C(=O)c1cc(C(=O)N[C@@H](Cc2cc(F)cc(F)c2)[C@H](O)CNCc2cccc(OC)c2)cc(S(=O)(=O)c2ccc(OC)cc2)c1
6.41

* * *

Biological target: Beta-secretase 1 (Homo sapiens, UniProt P56817)
Experiment: Binding affinity to BACE assessed as displacement of [3H]BMS-599240
Settings: read-out: IC50
readout.name: pIC50
Please express pIC50 as -log10 of the molar concentration.

What measured pIC50 is associated with CCCN(CCC)C(=O)c1cc(Sc2ccc(OC)cc2)cc(C(=O)N[C@@H](Cc2cc(F)cc(F)c2)[C@H](O)CNCc2cccc(OC)c2)c1 on Beta-secretase 1 (Homo sapiens, UniProt P56817)?
7.57

Another compound to check: CCCN(CCC)C(=O)c1cc(C(C)=O)cc(C(=O)N[C@@H](Cc2cc(F)cc(F)c2)[C@H](O)CNCc2cccc(OC)c2)c1
8.40

What do you have for COc1cccc(CNC[C@@H](O)[C@H](Cc2cc(F)cc(F)c2)NC(=O)c2cc(/C(C)=N\OCc3ccccc3)cc(N(c3ccccc3)S(C)(=O)=O)c2)c1 ?
7.92

Same again, this time with COc1cccc(CNC[C@@H](O)[C@H](Cc2cc(F)cc(F)c2)NC(=O)c2cc(C(C)=O)cc(C(=O)N[C@H](C)c3ccccc3)c2)c1
7.70

// repeat for CCCN(CCC)C(=O)c1cc(CC(C)O)cc(C(=O)N[C@@H](Cc2cc(F)cc(F)c2)[C@H](O)CNCc2cccc(OC)c2)c1 (some centres not stated) and report
7.80

What about CCCN(CCC)C(=O)c1cc(Oc2ccccc2OC)cc(C(=O)N[C@@H](Cc2cc(F)cc(F)c2)[C@H](O)CNCc2cccc(OC)c2)c1 ?
7.27

Try this compound next: CCCN(CCC)C(=O)c1cc(Oc2ccc(OC)cc2)cc(C(=O)N[C@@H](Cc2cc(F)cc(F)c2)[C@H](O)CNCc2cccc(OC)c2)c1
8.00

* * *

What pIC50 was measured for each of the following?
Biological target: Beta-secretase 1 (Homo sapiens)
Assay: Binding affinity to BACE assessed as displacement of [3H]BMS-599240
Conditions: read-out: IC50
// returns pIC50 (minus log10 of molar concentration), number only

Find the measured pIC50: item CCCN(CCC)C(=O)c1cc(C(=O)N[C@@H](Cc2cc(F)cc(F)c2)[C@H](O)CNCc2cccc(OC)c2)cc(/C(C)=N\OC)c1 , target or system Beta-secretase 1 (Homo sapiens).
9.00

Entry to check: C=CCO/N=C(/C)c1cc(C(=O)N[C@@H](Cc2cc(F)cc(F)c2)[C@H](O)CNCc2cccc(OC)c2)cc(C(=O)N(CCC)CCC)c1
8.00

Request: CO/N=C(/C)c1cc(C(=O)NC(C)c2ccc(F)cc2)cc(C(=O)N[C@@H](Cc2cc(F)cc(F)c2)[C@H](O)CNCc2cccc(OC)c2)c1 (some centres undefined)
7.62

Thanks! And COc1cccc(CNC[C@@H](O)[C@H](Cc2cc(F)cc(F)c2)NC(=O)c2cccc(N3CCCCS3(=O)=O)c2)c1 ?
7.13

Please give the result for COc1cccc(CNC[C@@H](O)[C@H](Cc2cc(F)cc(F)c2)NC(=O)c2cc(/C(C)=N\O)cc(N3CCCCS3(=O)=O)c2)c1 too.
7.42

Lookup CCCN(CCC)C(=O)c1cc(C(=O)N[C@@H](Cc2cc(F)cc(F)c2)[C@H](O)CNCc2cccc(OC)c2)cc(S(=O)(=O)c2ccccc2)c1
7.96

Also CCCN(CCC)C(=O)c1cc(C(=O)N[C@@H](Cc2cc(F)cc(F)c2)[C@H](O)CNCc2cccc(OC)c2)cc(S(=O)(=O)c2ccc(OC)cc2)c1 , if possible.
7.92

Repeat with COc1cccc(CNC[C@@H](O)[C@H](Cc2cc(F)cc(F)c2)NC(=O)c2cc(/C(C)=N\O)cc(N(C)S(C)(=O)=O)c2)c1
7.12

Now this one: CCCN(CCC)C(=O)c1cc(Sc2ccccc2)cc(C(=O)N[C@@H](Cc2cc(F)cc(F)c2)[C@H](O)CNCc2cccc(OC)c2)c1
7.89

Now consider CO/N=C(\C)c1cc(C(=O)N[C@@H](Cc2cc(F)cc(F)c2)[C@H](O)CNCc2cccc(OC)c2)cc(N(C)S(C)(=O)=O)c1 and answer again.
7.22

And the next one, COc1cccc(CNC[C@@H](O)[C@H](Cc2cc(F)cc(F)c2)NC(=O)c2cc(C(=O)N[C@H](C)c3ccccc3)cc(C(C)O)c2)c1 (some centres undefined) ?
7.54

Then C=CCO/N=C(/C)c1cc(C(=O)N[C@@H](Cc2cc(F)cc(F)c2)[C@H](O)CNCc2cccc(OC)c2)cc(N(C)S(C)(=O)=O)c1 ?
6.82

One more compound: COc1cccc(CNC[C@@H](O)[C@H](Cc2cc(F)cc(F)c2)NC(=O)c2cc(C(C)=O)cc(C(=O)NC(C)c3ccc(F)cc3)c2)c1 (some centres undefined)
7.29

* * *

Target: Beta-secretase 1 (Homo sapiens, UniProt P56817)
Assay: Inhibition of BACE1 in human HEK293 cells overexpressing APP with Swedish mutation assessed as inhibition of amyloid beta 40 production
Type: cell-based
Details: read-out: IC50
readout.name: IC50 (nM)
Numeric answer only, unit nM assumed.

May I ask what IC50 has been recorded for CO/N=C(/C)c1cc(C(=O)NC(C)c2ccc(F)cc2)cc(C(=O)N[C@@H](Cc2cc(F)cc(F)c2)[C@H](O)CNCc2cccc(OC)c2)c1 (some centres not stated) ?
276

Then this molecule: C=CCO/N=C(/C)c1cc(C(=O)N[C@@H](Cc2cc(F)cc(F)c2)[C@H](O)CNCc2cccc(OC)c2)cc(N2CCCCS2(=O)=O)c1
1230

Quick one: CCCN(CCC)C(=O)c1cc(C(C)=O)cc(C(=O)N[C@@H](Cc2cc(F)cc(F)c2)[C@H](O)CNCc2cccc(OC)c2)c1
19

Now give it for COc1cccc(CNC[C@@H](O)[C@H](Cc2cc(F)cc(F)c2)NC(=O)c2cccc(N(c3ccccc3)S(C)(=O)=O)c2)c1 too.
137

Let us now turn to COc1cccc(CNC[C@@H](O)[C@H](Cc2cc(F)cc(F)c2)NC(=O)c2cc(/C(C)=N\O)cc(N(C)S(C)(=O)=O)c2)c1
429
